Tested target: FGFR3 (UniProt P22607)
Sequence (P22607 whole entry, looked up): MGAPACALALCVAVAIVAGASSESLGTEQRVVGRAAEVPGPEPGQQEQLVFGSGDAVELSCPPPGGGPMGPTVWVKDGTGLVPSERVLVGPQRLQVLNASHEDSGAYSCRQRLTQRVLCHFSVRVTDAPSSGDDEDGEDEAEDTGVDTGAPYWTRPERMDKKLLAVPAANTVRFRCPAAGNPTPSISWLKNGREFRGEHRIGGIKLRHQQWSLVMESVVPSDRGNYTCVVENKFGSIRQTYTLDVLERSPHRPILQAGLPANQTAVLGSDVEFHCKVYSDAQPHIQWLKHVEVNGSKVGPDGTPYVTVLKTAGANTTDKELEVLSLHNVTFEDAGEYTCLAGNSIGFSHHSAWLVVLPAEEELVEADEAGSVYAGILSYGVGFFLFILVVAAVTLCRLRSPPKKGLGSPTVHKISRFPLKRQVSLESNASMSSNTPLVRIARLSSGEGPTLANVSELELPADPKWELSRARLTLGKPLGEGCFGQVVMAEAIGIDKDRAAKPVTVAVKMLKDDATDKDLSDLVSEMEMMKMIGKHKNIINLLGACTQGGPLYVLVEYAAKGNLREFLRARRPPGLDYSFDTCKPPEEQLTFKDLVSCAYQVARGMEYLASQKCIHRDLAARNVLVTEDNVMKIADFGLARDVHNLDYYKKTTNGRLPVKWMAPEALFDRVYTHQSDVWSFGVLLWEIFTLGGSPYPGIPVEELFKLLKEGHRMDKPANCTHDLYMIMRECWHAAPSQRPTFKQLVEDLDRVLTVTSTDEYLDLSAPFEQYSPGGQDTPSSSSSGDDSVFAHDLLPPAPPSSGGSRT
Test description: phosphorylation enrichment, bacterial display (enrichment ratio); higher = better substrate or ligand; peptides without Tyr show the background
Each entry below lists one item and its recorded phosphorylation enrichment value.
API note: the answer field is a bare number with no unit suffix.

Record excerpt, results attached:
* SLQFEYVHFGG [CDC14A_Y591_S589F_YF] | 1.33
* EGNEQYEGYCV [GRIA3_Y451_R450Q] | 0.691

Data request: I'd like to know its phosphorylation enrichment. The sequence in question is PVDVAYRHGFF [PLEC_Y2967_R2969H_YF]
Data returned: 0.458

====

Tested target: Hck (UniProt P08631)
Sequence (P08631 whole entry, looked up): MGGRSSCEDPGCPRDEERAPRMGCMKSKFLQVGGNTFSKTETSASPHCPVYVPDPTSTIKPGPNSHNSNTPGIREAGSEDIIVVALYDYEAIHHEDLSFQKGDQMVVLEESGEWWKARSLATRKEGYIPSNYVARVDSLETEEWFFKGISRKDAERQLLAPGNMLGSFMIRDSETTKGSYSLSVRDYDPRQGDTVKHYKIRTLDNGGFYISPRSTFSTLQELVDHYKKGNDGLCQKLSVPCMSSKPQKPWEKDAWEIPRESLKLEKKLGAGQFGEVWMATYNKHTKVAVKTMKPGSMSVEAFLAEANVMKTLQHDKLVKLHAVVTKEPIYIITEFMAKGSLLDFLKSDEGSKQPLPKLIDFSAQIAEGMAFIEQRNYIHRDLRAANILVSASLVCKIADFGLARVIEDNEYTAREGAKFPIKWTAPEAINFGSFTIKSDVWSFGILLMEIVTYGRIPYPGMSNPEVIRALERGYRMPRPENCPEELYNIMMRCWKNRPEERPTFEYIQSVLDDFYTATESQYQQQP
Test description: phosphorylation enrichment, bacterial display (enrichment ratio); higher = better substrate or ligand; peptides without Tyr show the background
Measured phosphorylation enrichment, listed per entry for reference.

Sample records with phosphorylation enrichment:
- AVLSLYASGRN [ACTA1_Y145_T150N]: 0.688
- CEHRGSLYLAI [TEK_Y897_Y897S]: 0.606
- APTSGYREFVH [IL4R_Y575_Q576R]: 0.379

Note: attention shifts to another entry.
Data request: Recorded phosphorylation enrichment for WHFTFYNELRV [ACTC1_Y93_H90Y_YF] with Hck (UniProt P08631), please?
Data returned: 0.635

====

Tested target: SHP2-C SH2;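 note: peptide library displayed on the E. coli surface as eCPX fusions, selected cells deep-sequenced, score is each peptide's frequency after selection divided by its frequency in the input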
Test description: SH2 binding enrichment of the phosphorylated peptide, bacterial display (enrichment ratio); higher = better substrate or ligand; peptides without Tyr show the background
Measurement name: SH2 binding enrichment

- GFSDPYVKAFL [SYT3_Y470_S474F]: 0.686
- RLDGEYFTLQI [TP53_Y327_P322R]: 0.572
- LDLSYYHTSSS [EMD_Y182_P183H]: 1.36
- IQKWEYVPLGT [FAH_Y244_P249T]: 0.497
- FARNSYVAGQY [G6PD_Y107]: 0.651

Data request: Consider the sequence shown here: PTTKTYFPHFA [HBA1_Y43_D48A] What is its recorded SH2 binding enrichment?
Data returned: 0.734

Data request: Consider the sequence shown here: KAALSYVSEIG [BPIFB2_Y36] What is its recorded SH2 binding enrichment?
Data returned: 0.58

Data request: Endpoint output: SH2 binding enrichment of RENGPYFASFP [GDAP2_Y487_T489A_YF] . Value?
Data returned: 0.707

Data request: If you can, please state the reported SH2 binding enrichment value of EAEALYQTKFQ [KRT73_Y325] .
Data returned: 0.609

====

Tested target: Hck (UniProt P08631)
Test description: phosphorylation enrichment, bacterial display (enrichment ratio); higher = better substrate or ligand; peptides without Tyr show the background
# maps each entry to its phosphorylation enrichment
In your answer, state the number alone without any accompanying words.

Use the examples below as a reference point.
* TGVRDYIHVVD [GALE_Y241] | 0.493
* CTTIHYNYVCN [TP53_Y234_M237V] | 0.514
* KVNKIYHPDFI [LIG3_Y767_Y768H] | 0.488
* RHPLEYLRQYP [NARS2_Y138] | 0.561
* SIVEDYRPPFF [ACVRL1_Y421_G416S_YF] | 0.38

Moving on to the next sequence.
Data request: Tell me the measured phosphorylation enrichment of ALMGLYHGQVL [HADHA_Y343] , please.
Data returned: 1.64
